tested.on: Voltage-gated inwardly rectifying potassium channel KCNH2 (Homo sapiens)
method.summary: hERG protection against dofetilide inhibition, confirmation, cell-based, thallium flux, duplicate retest, dofetilide IC70 (AID 1835)
setup.conditions: hERG cell line, FluxOR thallium flux, dofetilide-blocked; at 10 µM
About 750 (31%) of roughly 2,400 compounds were called active.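 Rule for the calls: active = median signal gain over dofetilide-blocked control wells reaching their mean plus 3 SD, so readout 1 at least 0; inactive = the rest.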 Some of the results follow.
Possible outcomes: true (1) for active, false (0) for inactive

# molecule, category.label
measured = [
    ("COc1ccc(C(CC(=O)O)NC(=O)C(c2ccccc2)c2ccccc2)cc1 (stereo not given)", "false (0)"),
    ("COC(=O)c1c(NC(=O)CN2CCOCC2)sc2c1CCC(C)C2 (stereo not given)", "false (0)"),
    ("Cc1cccc(C)c1NC(=O)Cn1cnc2c(=O)n(C)c(=O)n(C)c21", "false (0)"),
    ("O=C(N1CCOCC1)N1CCC(n2nnc3ccccc32)CC1", "false (0)"),
    ("Cc1ccc2c(c1)N(CCC(=O)NCc1cccnc1)C(=O)CO2", "false (0)"),
    ("CC(C)OC(=O)c1c(NC(=O)c2ccco2)sc2c1CCCCC2", "false (0)"),
    ("CC(C)OC(=O)c1c(NS(=O)(=O)c2ccccc2)sc2c1CCCC2", "true (1)"),
    ("Cn1c(NNC(=O)C(c2ccccc2)c2ccccc2)cc(=O)n(C)c1=O", "true (1)"),
    ("Cc1cc(C)cc(-n2nnc(C(=O)NCc3ccc4c(c3)OCO4)c2N)c1", "false (0)"),
    ("COc1cccc([C@@H]2Oc3ccc(OC)cc3C(=O)[C@H]2OC(=O)NCc2ccc3c(c2)OCO3)c1", "true (1)"),
]

---

tested.on: Voltage-gated inwardly rectifying potassium channel KCNH2 (Homo sapiens)
method.summary: hERG protection against dofetilide inhibition, confirmation, cell-based, thallium flux, duplicate retest, dofetilide IC70 (AID 1835)
setup.conditions: hERG cell line, FluxOR thallium flux, dofetilide-blocked; at 10 µM; active compounds read high
Hit rate of the full screen: of about 2,400 compounds, about 750 (31%) were called active. The list shows a part of the results.
readout.kind: activity increase over dofetilide control, less the hit threshold

# compound, endpoint.value
data = [
    ("CNC(=S)N/N=C/c1cc(Br)cc(Br)c1O", "-3% (inactive)"),
    ("O=C(COC(=O)c1cccs1)NCCN1C(=O)CSC1=O", "-9% (inactive)"),
    ("COc1ccc(Cn2c(O)cc(=O)[nH]c2=O)cc1", "-9% (inactive)"),
    ("O=C(O)CCCCn1c(SCc2ccccc2Cl)nc2ccsc2c1=O", "4% (active)"),
    ("NC(=O)C1CCN(C(=O)CC(c2ccccc2)c2ccccc2)CC1", "-17% (inactive)"),
    ("O=C(CCc1nc(-c2ccccc2)no1)N1CCCC1", "-20% (inactive)"),
    ("Oc1ccc2[nH]cnc2c1CN1CCCCC1", "-18% (inactive)"),
    ("COc1ccc(-n2nc(C(=O)NCC(=O)NCc3ccc(F)cc3)c3ccccc3c2=O)cc1OC", "-13% (inactive)"),
    ("CN(CCc1ccccn1)C(=O)CCC1CCCN(C(=O)c2ccsc2)C1 (configuration not stated)", "-5% (inactive)"),
    ("Brc1ccc(-c2noc(CCc3ccccc3)n2)cc1", "-20% (inactive)"),
    ("COc1ccc(-n2c(O)c(/C=C3\\C=Nc4ccccc43)c(=O)[nH]c2=O)cc1", "21% (active)"),
    ("O=C(O)C1CCN1C1CCCCC1 (configuration not stated)", "-16% (inactive)"),
]

---

tested.on: Voltage-gated inwardly rectifying potassium channel KCNH2 (Homo sapiens)
method.summary: hERG protection against dofetilide inhibition, confirmation, cell-based, thallium flux, duplicate retest, dofetilide IC70 (AID 1835)
setup.conditions: hERG cell line, FluxOR thallium flux, dofetilide-blocked; at 10 µM
The campaign covered roughly 2,400 compounds. About 750 (31%) were called active.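 How the source made its calls: active means median signal gain over dofetilide-blocked control wells reaching their mean plus 3 SD, so readout 1 at least 0; inactive means the rest.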 The list shows a part of the results.
Outcomes: active, inactive

# compound, tested.on, category.label
data = [
    ("O=c1c2c3c(sc2[nH]c(=S)n1Cc1ccco1)CCC3", "Voltage-gated inwardly rectifying potassium channel KCNH2 (Homo sapiens)", "active"),
    ("c1ccc2c(c1)c1ccccc1n1c(-c3ccc4c(c3)OCO4)nnc21", "Voltage-gated inwardly rectifying potassium channel KCNH2 (Homo sapiens)", "active"),
    ("Cc1ccc(-n2nc3ccc(N)cc3n2)c(C)c1", "Voltage-gated inwardly rectifying potassium channel KCNH2 (Homo sapiens)", "inactive"),
    ("CC(C)CC(=O)Nc1nc(=S)ss1", "Voltage-gated inwardly rectifying potassium channel KCNH2 (Homo sapiens)", "inactive"),
    ("Cc1ccc(NC(=O)c2cc(NC(=O)/C=C\\C(=O)O)ccc2N2CCCCC2)cc1", "Voltage-gated inwardly rectifying potassium channel KCNH2 (Homo sapiens)", "inactive"),
    ("S=c1[nH]c2ccccc2n2cccc12", "Voltage-gated inwardly rectifying potassium channel KCNH2 (Homo sapiens)", "inactive"),
    ("O=C(Nc1nnc(C2=COCCO2)o1)c1ccc(Br)cc1", "Voltage-gated inwardly rectifying potassium channel KCNH2 (Homo sapiens)", "inactive"),
    ("O=C(CSc1cccc2cccnc12)N/N=C/c1cccnc1", "Voltage-gated inwardly rectifying potassium channel KCNH2 (Homo sapiens)", "inactive"),
    ("CCn1c(=S)[nH]c2sc3c(c2c1=O)CCCCC3", "Voltage-gated inwardly rectifying potassium channel KCNH2 (Homo sapiens)", "active"),
    ("Cc1ccc(-n2c(=S)[nH]c3sc4c(c3c2=O)CCC4)cc1", "Voltage-gated inwardly rectifying potassium channel KCNH2 (Homo sapiens)", "inactive"),
    ("CCCn1c(SC(C)C(=O)N2CCOCC2)nc2ccc(Br)cc2c1=O (stereo not drawn)", "Voltage-gated inwardly rectifying potassium channel KCNH2 (Homo sapiens)", "inactive"),
    ("COc1ccc(C)cc1NC(=O)Nc1ccc(C(=O)N2CCCC2)cc1", "Voltage-gated inwardly rectifying potassium channel KCNH2 (Homo sapiens)", "inactive"),
    ("O=C(COC(=O)C1C2CC3OC(=O)C1C3C2)Nc1ccc(Cl)cc1 (stereo not drawn)", "Voltage-gated inwardly rectifying potassium channel KCNH2 (Homo sapiens)", "inactive"),
    ("O=C(CN1C(=O)COc2ccccc21)NCCCN1CCOCC1", "Voltage-gated inwardly rectifying potassium channel KCNH2 (Homo sapiens)", "inactive"),
    ("Oc1ccc(Br)cc1-c1n[nH]c(=S)n1Cc1ccccc1", "Voltage-gated inwardly rectifying potassium channel KCNH2 (Homo sapiens)", "inactive"),
    ("O=C(Nc1nnc(-c2ccc3c(c2)CCCC3)o1)C1COc2ccccc2O1 (stereo not drawn)", "Voltage-gated inwardly rectifying potassium channel KCNH2 (Homo sapiens)", "inactive"),
    ("CC(C)Oc1cccc(C(=O)N2CCCC2)c1", "Voltage-gated inwardly rectifying potassium channel KCNH2 (Homo sapiens)", "inactive"),
    ("CC(C)C(NC(=O)c1ccccc1)C(=O)N/N=C\\c1ccco1 (stereo not drawn)", "Voltage-gated inwardly rectifying potassium channel KCNH2 (Homo sapiens)", "inactive"),
    ("O=C(Nc1nc(=S)ss1)c1ccc(Cl)cc1Cl", "Voltage-gated inwardly rectifying potassium channel KCNH2 (Homo sapiens)", "active"),
    ("O=C(O)COc1ccc(NC(=O)c2ccc3c(c2)C(=O)N(C2CCCCC2)C3=O)cc1", "Voltage-gated inwardly rectifying potassium channel KCNH2 (Homo sapiens)", "active"),
    ("O=C1c2ccccc2C(=O)N1Cc1ccco1", "Voltage-gated inwardly rectifying potassium channel KCNH2 (Homo sapiens)", "inactive"),
    ("CCCCc1c(C)[nH]c(C(=O)OCC)c1C", "Voltage-gated inwardly rectifying potassium channel KCNH2 (Homo sapiens)", "inactive"),
    ("CN1CCN(c2nnc(-c3cccs3)c3ccccc23)CC1", "Voltage-gated inwardly rectifying potassium channel KCNH2 (Homo sapiens)", "inactive"),
    ("Cc1ccc2nc(SCC(=O)N3CCCCCC3)nc(=O)n2c1", "Voltage-gated inwardly rectifying potassium channel KCNH2 (Homo sapiens)", "inactive"),
    ("C=CCn1c(=S)[nH]c2cc(-c3ccccc3)sc2c1=O", "Voltage-gated inwardly rectifying potassium channel KCNH2 (Homo sapiens)", "active"),
    ("COc1cccc2sc(Nc3nc(-c4ccccn4)cs3)nc12", "Voltage-gated inwardly rectifying potassium channel KCNH2 (Homo sapiens)", "inactive"),
    ("CCCCCCCCCCn1c2c(c(=N)c3c1CCC3)CCC2", "Voltage-gated inwardly rectifying potassium channel KCNH2 (Homo sapiens)", "active"),
    ("S=c1nc(-c2ccccc2)c(-c2ccccc2)n[nH]1", "Voltage-gated inwardly rectifying potassium channel KCNH2 (Homo sapiens)", "inactive"),
    ("Cc1ccc(-c2n[nH]c(=S)nc2-c2ccc(C)cc2)cc1", "Voltage-gated inwardly rectifying potassium channel KCNH2 (Homo sapiens)", "active"),
    ("Cc1ccc(NC(=O)c2cc(-c3ccc4c(c3)OCO4)on2)cc1", "Voltage-gated inwardly rectifying potassium channel KCNH2 (Homo sapiens)", "inactive"),
    ("CCc1ccc2[nH]c(=O)c(-c3ccccc3)c(O)c2c1", "Voltage-gated inwardly rectifying potassium channel KCNH2 (Homo sapiens)", "inactive"),
    ("Cc1cc(C)c(C(=O)c2ccc(C(=O)N3CCCCC3)cc2)c(C)c1", "Voltage-gated inwardly rectifying potassium channel KCNH2 (Homo sapiens)", "active"),
    ("CCOc1ccc(N(CC)C(=O)COc2cc(=O)n(C)c3ccccc23)cc1", "Voltage-gated inwardly rectifying potassium channel KCNH2 (Homo sapiens)", "active"),
    ("CCC(=O)Nc1cc(-c2nnc(OC)c3ccccc23)ccc1N1CCOCC1", "Voltage-gated inwardly rectifying potassium channel KCNH2 (Homo sapiens)", "inactive"),
    ("O=C(Cn1c(=O)c2cccn2c2ccccc21)NCCc1ccc(Cl)cc1", "Voltage-gated inwardly rectifying potassium channel KCNH2 (Homo sapiens)", "inactive"),
    ("Cc1cc(C)n(-c2nc3sc4c(c3c(=O)[nH]2)CCCC4)n1", "Voltage-gated inwardly rectifying potassium channel KCNH2 (Homo sapiens)", "inactive"),
    ("O=c1c2cc(Br)ccc2nc(-c2ccc(Cl)cc2)n1O", "Voltage-gated inwardly rectifying potassium channel KCNH2 (Homo sapiens)", "active"),
    ("COc1ccc(CNC(=O)C2CCCN2)cc1OC (stereo not drawn)", "Voltage-gated inwardly rectifying potassium channel KCNH2 (Homo sapiens)", "inactive"),
    ("Cc1ccccc1OC(=O)n1c(=S)oc2cc(Cl)ccc21", "Voltage-gated inwardly rectifying potassium channel KCNH2 (Homo sapiens)", "inactive"),
    ("O=C1C=C(c2ccccc2)OC(=O)C1C(=O)c1ccccc1 (stereo not drawn)", "Voltage-gated inwardly rectifying potassium channel KCNH2 (Homo sapiens)", "inactive"),
    ("CC(C)OC(=O)CSc1nnc(C2CCCCC2)n1N", "Voltage-gated inwardly rectifying potassium channel KCNH2 (Homo sapiens)", "inactive"),
    ("Cc1ccccc1C(=O)Nc1nc(=S)ss1", "Voltage-gated inwardly rectifying potassium channel KCNH2 (Homo sapiens)", "active"),
    ("CCn1c2ccccc2c2cc(NC(=O)COc3ccccc3)ccc21", "Voltage-gated inwardly rectifying potassium channel KCNH2 (Homo sapiens)", "inactive"),
    ("CCOc1ccc(-n2c(C)c(C(C)=O)c3cc(O)ccc32)cc1", "Voltage-gated inwardly rectifying potassium channel KCNH2 (Homo sapiens)", "inactive"),
    ("Cc1[nH]c(=O)[nH]c(=O)c1S(=O)(=O)N1CCC(C(=O)NC(C)c2ccccc2)CC1 (stereo not drawn)", "Voltage-gated inwardly rectifying potassium channel KCNH2 (Homo sapiens)", "inactive"),
    ("Cc1ccc(C(C)C)cc1S(=O)(=O)NC1CC(C)(C)NC(C)(C)C1", "Voltage-gated inwardly rectifying potassium channel KCNH2 (Homo sapiens)", "inactive"),
    ("N#C/C(=C\\c1ccc(-c2ccccc2Cl)o1)C(=O)Nc1nc2ccccc2s1", "Voltage-gated inwardly rectifying potassium channel KCNH2 (Homo sapiens)", "inactive"),
    ("Cc1cc(C)cc(NC(=O)CSc2nnc(CN3CCOCC3)n2C)c1", "Voltage-gated inwardly rectifying potassium channel KCNH2 (Homo sapiens)", "inactive"),
]

The measured values listed here are drawn from PubChem BioAssay AID1835.
